Record form. Attribute: solubility (mole fraction). Fill in for each entry.
conditions: in n-propanol, 288.15 K
Keep the answer to the number alone.

Record request: solubility (mole fraction) value, item "CCCCOC(=O)c1ccc(O)cc1"
0.289

Record request: solubility (mole fraction) value, item "CCOC(=O)c1ccc(O)cc1"
0.127

---

conditions: in ethanol, 298.15 K
Record form. Attribute: solubility (mole fraction). Fill in for each entry.
Keep the answer to the number alone.

Record request: solubility (mole fraction) value, item "CCOC(=O)c1ccc(O)cc1"
0.163

Record request: solubility (mole fraction) value, item "CCCCOC(=O)c1ccc(O)cc1"
0.361

---

conditions: in n-propanol, 308.15 K
PROPERTY MEASURED: solubility (mole fraction)
Keep the answer to the number alone.

Record request: solubility (mole fraction) value, item "CCOC(=O)c1ccc(O)cc1"
0.214

Record request: solubility (mole fraction) value, item "CCCCOC(=O)c1ccc(O)cc1"
0.448

---

settings: in ethanol, 318.15 K
PROPERTY MEASURED: solubility (mole fraction)
Keep the answer to the number alone.

Record request: solubility (mole fraction) value, item "CCCCOC(=O)c1ccc(O)cc1"
0.524

Record request: solubility (mole fraction) value, item "CCOC(=O)c1ccc(O)cc1"
0.257

---

conditions: in isopropanol, 318.15 K
PROPERTY MEASURED: solubility (mole fraction)
Keep the answer to the number alone.

Record request: solubility (mole fraction) value, item "CCCCOC(=O)c1ccc(O)cc1"
0.512

Record request: solubility (mole fraction) value, item "CCOC(=O)c1ccc(O)cc1"
0.282

---

Record form. Attribute: solubility (mole fraction). Fill in for each entry.
conditions: in isopropanol, 298.15 K
Keep the answer to the number alone.

Record request: solubility (mole fraction) value, item "CCCCOC(=O)c1ccc(O)cc1"
0.339

Record request: solubility (mole fraction) value, item "CCOC(=O)c1ccc(O)cc1"
0.182

---

conditions: in isopropanol, 308.15 K
PROPERTY MEASURED: solubility (mole fraction)
Keep the answer to the number alone.

Record request: solubility (mole fraction) value, item "CCOC(=O)c1ccc(O)cc1"
0.239

Record request: solubility (mole fraction) value, item "CCCCOC(=O)c1ccc(O)cc1"
0.415

---

details: in isopropanol, 288.15 K
PROPERTY MEASURED: solubility (mole fraction)
Keep the answer to the number alone.

Record request: solubility (mole fraction) value, item "CCCCOC(=O)c1ccc(O)cc1"
0.293

Record request: solubility (mole fraction) value, item "CCOC(=O)c1ccc(O)cc1"
0.157
